method.notes: Venetoclax plasma pharmacokinetics in wild-type, CYP3A(−/−) and OATP1B2(−/−) mice
Type: in vivo
protocol.conditions: female, FVB, mouse, plasma, po, 10 mg/kg, wild-type FVB, female, venetoclax 10 mg/kg PO, co-treatment PEG400 (vehicle); mean (SE); read-out: Venetoclax AUC(0–8h)

cpd.smiles | units.symbol | AUC(0-t)
CC1(C)CCC(CN2CCN(c3ccc(C(=O)NS(=O)(=O)c4ccc(NCC5CCOCC5)c([N+](=O)[O-])c4)c(Oc4cnc5[nH]ccc5c4)c3)CC2)=C(c2ccc(Cl)cc2)C1 | ng·h/mL | 6530

###

method.notes: Venetoclax plasma pharmacokinetics in wild-type, CYP3A(−/−) and OATP1B2(−/−) mice
Type: in vivo
protocol.conditions: female, FVB.129P2 CYP3A(−/−), mouse, plasma, po, 10 mg/kg, CYP3A(−/−), female, venetoclax 10 mg/kg PO 30 min after ketoconazole 50 mg/kg PO; mean (SE)

compound | Cmax
CC1(C)CCC(CN2CCN(c3ccc(C(=O)NS(=O)(=O)c4ccc(NCC5CCOCC5)c([N+](=O)[O-])c4)c(Oc4cnc5[nH]ccc5c4)c3)CC2)=C(c2ccc(Cl)cc2)C1 [Venetoclax] | 2700 ng/mL

###

method.notes: Venetoclax plasma pharmacokinetics in wild-type, CYP3A(−/−) and OATP1B2(−/−) mice
Type: in vivo
protocol.conditions: male, DBA, mouse, plasma, po, 10 mg/kg, Table S1: wild-type DBA, male, venetoclax 10 mg/kg PO, no co-treatment; mean (SE); read-out: Venetoclax AUC(0-last)
parameter.measured: AUC(0-t) (ng·h/mL)

cpd.smiles | units.symbol | data.value
CC1(C)CCC(CN2CCN(c3ccc(C(=O)NS(=O)(=O)c4ccc(NCC5CCOCC5)c([N+](=O)[O-])c4)c(Oc4cnc5[nH]ccc5c4)c3)CC2)=C(c2ccc(Cl)cc2)C1 | ng·h/mL | 5270

###

method.notes: Venetoclax plasma pharmacokinetics in wild-type, CYP3A(−/−) and OATP1B2(−/−) mice
Assay type: in vivo
protocol.conditions: female, FVB.129P2 CYP3A(−/−), mouse, plasma, po, 10 mg/kg, CYP3A(−/−), female, venetoclax 10 mg/kg PO, co-treatment PEG 400 (vehicle); mean (SE); read-out: Venetoclax AUC(0–8h)

molecule | units.symbol | AUC(0-t)
CC1(C)CCC(CN2CCN(c3ccc(C(=O)NS(=O)(=O)c4ccc(NCC5CCOCC5)c([N+](=O)[O-])c4)c(Oc4cnc5[nH]ccc5c4)c3)CC2)=C(c2ccc(Cl)cc2)C1 [Venetoclax] | ng·h/mL | 10600

###

method.notes: Venetoclax plasma pharmacokinetics in wild-type, CYP3A(−/−) and OATP1B2(−/−) mice
Assay type: in vivo
protocol.conditions: female, FVB.129P2 CYP3A(−/−), mouse, plasma, po, 10 mg/kg, CYP3A(−/−), female, venetoclax 10 mg/kg PO 30 min after ketoconazole 50 mg/kg PO; mean (SE); read-out: Venetoclax AUC(0–8h)
Source text: […]

cpd.smiles | AUC(0-t) / µg·h/mL
CC1(C)CCC(CN2CCN(c3ccc(C(=O)NS(=O)(=O)c4ccc(NCC5CCOCC5)c([N+](=O)[O-])c4)c(Oc4cnc5[nH]ccc5c4)c3)CC2)=C(c2ccc(Cl)cc2)C1 | 17.3

###

target.or.system: OATP1B2 (Mus musculus)
Sequence (Q9JJL3 whole entry): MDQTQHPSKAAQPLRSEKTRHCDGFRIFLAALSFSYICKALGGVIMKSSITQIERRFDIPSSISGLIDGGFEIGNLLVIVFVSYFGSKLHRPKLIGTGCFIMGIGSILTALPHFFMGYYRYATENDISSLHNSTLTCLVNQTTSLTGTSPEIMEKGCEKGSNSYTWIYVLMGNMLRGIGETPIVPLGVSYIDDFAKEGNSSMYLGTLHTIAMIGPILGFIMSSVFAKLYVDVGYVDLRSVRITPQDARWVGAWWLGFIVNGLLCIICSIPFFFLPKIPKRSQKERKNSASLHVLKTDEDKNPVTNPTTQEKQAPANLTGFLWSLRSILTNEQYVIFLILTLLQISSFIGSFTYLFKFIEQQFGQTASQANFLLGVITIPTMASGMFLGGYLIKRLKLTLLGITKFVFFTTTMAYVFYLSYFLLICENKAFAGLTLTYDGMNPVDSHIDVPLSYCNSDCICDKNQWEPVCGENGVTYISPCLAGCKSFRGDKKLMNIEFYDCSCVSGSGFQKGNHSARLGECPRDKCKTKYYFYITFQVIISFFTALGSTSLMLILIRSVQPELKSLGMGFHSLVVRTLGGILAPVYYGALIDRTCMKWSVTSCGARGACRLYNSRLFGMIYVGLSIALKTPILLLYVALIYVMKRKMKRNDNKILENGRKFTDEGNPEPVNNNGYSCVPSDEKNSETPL
method.notes: Inhibition of OATP1B2-mediated [3H]EβG uptake in HEK293 cells
protocol.conditions: OATP1B2 IC50, HEK293 cells, 0.2 µM EβG, 15 min pre-incubation + 15 min co-incubation
pIC50: −log10 of the molar value.
// reported pIC50 for each item listed

compound | target.or.system | relation.operator | pIC50
CO[C@H]1/C=C/O[C@@]2(C)Oc3c(C)c(O)c4c(O)c(c(/C=N/N5CCN(C)CC5)c(O)c4c3C2=O)NC(=O)/C(C)=C\C=C\[C@H](C)[C@H](O)[C@@H](C)[C@@H](O)[C@@H](C)[C@H](OC(C)=O)[C@@H]1C | OATP1B2 (Mus musculus) | = | 5.68
CC(=O)N1CCN(c2ccc(OCC3COC(Cn4ccnc4)(c4ccc(Cl)cc4Cl)O3)cc2)CC1 (stereo not drawn) | OATP1B2 (Mus musculus) | = | 5.66
CCC(C)n1ncn(-c2ccc(N3CCN(c4ccc(OCC5COC(Cn6cncn6)(c6ccc(Cl)cc6Cl)O5)cc4)CC3)cc2)c1=O (stereo not drawn) | OATP1B2 (Mus musculus) | < | 4.30
